target: HLA-A*1101 (human); assay: inhibition of 125I-labelled probe peptide binding to purified HLA-A*1101, gel filtration
Please mark class 1 if the recorded relative binding ratio (IC50 of standard peptide / IC50 of test peptide) is equal to or greater than 0.0002 relative binding ratio, and class 0 if it falls below.

INSERT INTO measurements (binder, class_name) VALUES
  ('GVGSPYVSR [HER2/neu peptide, position 776, 9 amino acids]', 'class 1'),
  ('ETEYHADGGK [HER2/neu peptide, position 874, 10 amino acids]', 'class 0'),
  ('GILIKRRQQK [HER2/neu peptide, position 672, 10 amino acids]', 'class 1'),
  ('GTQRCEKCSK [HER2/neu peptide, position 327, 10 amino acids]', 'class 1'),
  ('GGAVENPEY [HER2/neu peptide, position 1188, 9 amino acids]', 'class 0'),
  ('ESMPNPEGR [HER2/neu peptide, position 280, 9 amino acids]', 'class 0');
